- targetOrSystem: T1, HLA-DR13 (HLA-DRB1*13:01) (human)
- T1 construct: mature; purified from homozygous EBV-transformed lymphoblastoid cells with antibody L243
- method: competition ELISA vs biotin-B1 21-36
No end group written: not given here.
For each record, write down the corresponding relative affinity.
A bare number is all that is needed in reply.

Query: State the recorded relative affinity for this entry: TAMFIASKYEEMYPP-NH2 [CCNB1 250-264]
Response: 3

Query: State the recorded relative affinity for this entry: GDFAFVTDNTYTKHQ-NH2 [CCNB1 267-281]
Response: 62

Query: State the recorded relative affinity for this entry: SEYVKDIYAYLRQLE-NH2 [CCNB1 168-182]
Response: 12

Query: State the recorded relative affinity for this entry: RPLPLHFLRRASKIG-NH2 [CCNB1 299-313]
Response: 0.2
